- Measurement target: Thyrotropin receptor (Homo sapiens)
- Test name: qHTS assay to identify small molecule antagonists of the thyroid stimulating hormone receptor (TSHR) signaling pathway (AID 1259385); also: nearly all actives have a fitted effect of over 20% in size; also: potency is read from the fitted curve at half-maximal effect
- Condition details: TSHR-HEK293 cAMP HTRF, TSH-stimulated antagonist mode; series mostly up to 92.4 µM
Records with an inconclusive call do not appear. Active and inactive are the calls of the source. Calls follow the shape of the full dose curve.
Endpoint label: Potency

Example entries begin here.
>>> result("OC(c1ccc(Cl)cc1)(c1ccc(Cl)cc1)C(Cl)(Cl)Cl")
"68.6 µM (active)"
>>> result("CC(c1ccc(O)cc1)c1ccc(O)cc1")
"inactive"
>>> result("Cn1[nH]nnc1=S")
"inactive"
>>> result("COc1ccc(/C(=C/C(=O)N2CCOCC2)c2ccc(Cl)cc2)cc1OC")
"inactive"
>>> result("ClC(Cl)=C(Cl)Cl")
"inactive"

Summary for this compound, COc1cc(N)c(Cl)cc1C(=O)NC1CN2CCC1CC2 (stereo unspecified) : Potency is inactive

Summary for this compound, CC(C)(C)OO : Potency is inactive
